Biological target: DRB1*0802
Assay: binding to purified HLA
measured-quantity: IC50 (nM)

binder="AAAEFVAAYTLHAAA [E4.Y9.H12]" result=13
binder="AAAEFVAAWTLHAAA [E4.H12]" result=24
binder="AAAHFVAAFTLKAEA [H4.F9.E14]" result=19
binder="AAAHFVAANTLHAAA [H4.N9.H12]" result=17
binder="AAANFVAAYTLHAAA [N4.Y9.H12]" result=7.5
